// reported PGE2 EC50 with compound for each item listed
Molecular target: Prostaglandin E2 receptor EP2 subtype (Homo sapiens) (UniProt P43116)
Sequence (P43116 whole entry, looked up): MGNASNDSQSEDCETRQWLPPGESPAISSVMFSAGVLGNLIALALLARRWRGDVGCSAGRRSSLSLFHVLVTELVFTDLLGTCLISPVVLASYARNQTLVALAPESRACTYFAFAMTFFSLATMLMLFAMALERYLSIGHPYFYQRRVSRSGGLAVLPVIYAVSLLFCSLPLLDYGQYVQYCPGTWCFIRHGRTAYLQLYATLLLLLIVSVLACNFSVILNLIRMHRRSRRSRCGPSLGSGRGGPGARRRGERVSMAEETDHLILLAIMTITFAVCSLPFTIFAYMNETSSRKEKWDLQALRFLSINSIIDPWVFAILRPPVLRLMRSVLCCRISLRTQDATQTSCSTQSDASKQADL
Assay: EP2 receptor modulators, dose response, cell-based, human EP2, PGE2 EC50 shift (AID 1421)
Conditions: EP2-expressing cells, PGE2 EC50 shift by compound; measured here: PGE2 EC50 at 6.7 uM compound
TEST READOUT: PGE2 EC50 with compound (nM)

COMPOUND | TARGET ENTITY | RESULT
O=C(CSc1ncnc2c1oc1ccccc12)Nc1cccc(F)c1 | Prostaglandin E2 receptor EP2 subtype (Homo sapiens) (UniProt P43116) | 3.15
O=C(O)c1ccc(-c2ccccc2C(F)(F)F)o1 | Prostaglandin E2 receptor EP2 subtype (Homo sapiens) (UniProt P43116) | 0.92
Cc1ccc2nc(SCC(=O)NCc3ccco3)c(C)cc2c1 | Prostaglandin E2 receptor EP2 subtype (Homo sapiens) (UniProt P43116) | 0.76
CN1C(=O)/C(=C/c2ccccc2OCc2cccc(F)c2)N(C)C1=S | Prostaglandin E2 receptor EP2 subtype (Homo sapiens) (UniProt P43116) | 0.81
O=C(O)/C=C/C(O)c1ccc(Cl)cc1 (stereo not drawn) | Prostaglandin E2 receptor EP2 subtype (Homo sapiens) (UniProt P43116) | 0.97
CCOC(=O)C1CCN(c2c(C(=O)c3ccccc3)cnc3ccc(Cl)cc23)CC1 | Prostaglandin E2 receptor EP2 subtype (Homo sapiens) (UniProt P43116) | 0.89
CC(C)C1COC(c2cccn2Cc2ccccc2Cl)=N1 (stereo not drawn) | Prostaglandin E2 receptor EP2 subtype (Homo sapiens) (UniProt P43116) | 0.95
O=C(O)CCCN1C(=O)/C(=C\c2ccco2)SC1=S | Prostaglandin E2 receptor EP2 subtype (Homo sapiens) (UniProt P43116) | 1.07
CCOc1ccccc1COC(=O)c1cccc(-n2cnnn2)c1 | Prostaglandin E2 receptor EP2 subtype (Homo sapiens) (UniProt P43116) | 1.06
COc1ccc2ccc(=O)oc2c1CC=C(C)C | Prostaglandin E2 receptor EP2 subtype (Homo sapiens) (UniProt P43116) | 1.13
COc1cc(O)c2c(=O)cc(C)oc2c1CC=C(C)C | Prostaglandin E2 receptor EP2 subtype (Homo sapiens) (UniProt P43116) | 2.64
CC(Sc1nc2ccccc2n1C)C(=O)NC(c1ccccc1)c1ccccc1 (stereo not drawn) | Prostaglandin E2 receptor EP2 subtype (Homo sapiens) (UniProt P43116) | 1.24
CC[C@H](C)C(=O)O[C@H]1C[C@@H](C)C=C2C=C[C@H](C)[C@H](CC[C@@H]3C[C@@H](O)CC(=O)O3)[C@H]21 | Prostaglandin E2 receptor EP2 subtype (Homo sapiens) (UniProt P43116) | 0.97
COc1ccc(-c2cc(C(F)(F)F)n3nc(C(=O)N(C)Cc4ccccc4)cc3n2)cc1OC | Prostaglandin E2 receptor EP2 subtype (Homo sapiens) (UniProt P43116) | 1.03
CCOc1ccc2cc(C#N)c(SCC(=O)NC(C)CC)nc2c1 (stereo not drawn) | Prostaglandin E2 receptor EP2 subtype (Homo sapiens) (UniProt P43116) | 1.36
CC1=CC(C)(C)N(S(=O)(=O)c2ccc(C)cc2)c2cc(C)ccc21 | Prostaglandin E2 receptor EP2 subtype (Homo sapiens) (UniProt P43116) | 1.17
CCn1c(COc2ccc(Cl)cc2)nnc1SCC(=O)Nc1ccc2c(c1)OCO2 | Prostaglandin E2 receptor EP2 subtype (Homo sapiens) (UniProt P43116) | 1.09
COc1ccccc1NC(=O)c1c(C)oc2c1CCCC2 | Prostaglandin E2 receptor EP2 subtype (Homo sapiens) (UniProt P43116) | 1.19
COc1cc(-c2nc(-c3cccc(C(F)(F)F)c3)no2)cc(OC)c1OC | Prostaglandin E2 receptor EP2 subtype (Homo sapiens) (UniProt P43116) | 0.89
COc1ccc(-n2c(=S)[nH]c3c(oc4ccccc43)c2=O)cc1 | Prostaglandin E2 receptor EP2 subtype (Homo sapiens) (UniProt P43116) | 2.8
CC1CCCCN1C(=O)/C(=C\c1ccccc1)c1ccccc1 (stereo not drawn) | Prostaglandin E2 receptor EP2 subtype (Homo sapiens) (UniProt P43116) | 2.61
CC(=O)c1ccc(S(=O)(=O)NCCCC(=O)NCCc2ccccn2)cc1 | Prostaglandin E2 receptor EP2 subtype (Homo sapiens) (UniProt P43116) | 1.15
Cc1ccc(S(=O)(=O)N2c3ccccc3OCC2C(C)(C)C)cc1 (stereo not drawn) | Prostaglandin E2 receptor EP2 subtype (Homo sapiens) (UniProt P43116) | 2.69

----------
Molecular target: Prostaglandin E2 receptor EP2 subtype (Homo sapiens) (UniProt P43116)
Test: EP2 receptor modulators, dose response, cell-based, human EP2, PGE2 EC50 shift (AID 1421)
Conditions: EP2-expressing cells, PGE2 EC50 shift by compound; measured here: PGE2 EC50 at 6.7 uM compound
// reported PGE2 EC50 with compound for each item listed

COMPOUND | PGE2 EC50 with compound [nM]
Cc1ccc2c(c1)N(S(=O)(=O)c1ccc(F)cc1)C(C(C)(C)C)CO2 (stereo unspecified) | 1.11
COC(=O)c1c(NC(NC(=O)C(C)C)C(Cl)(Cl)Cl)sc2c1CCCC2 (stereo unspecified) | 1
Cc1onc(-c2ccccc2)c1C(=O)N(Cc1ccco1)Cc1cccs1 | 0.34
Nc1ccc(Cl)cc1C(=O)c1ccccc1Cl | 1.16
CNC(=O)c1cc2c(=O)n3cc(C)ccc3nc2n(C(C)C)c1=N | 1.13
Cc1cccc(Cn2c(N3CCN(c4ccccc4)CC3)nc3c2c(=O)n(C)c(=O)n3C)c1 | 0.94
CCN(CC)CCN1C(=O)c2cccc3cc(N)cc(c23)C1=O | 2.64
COc1ccccc1/C=C(/C(=O)OCC(=O)Nc1ccccc1C(C)C)c1ccccc1 | 1.1
O=C(c1ccco1)N(CCC(c1ccccc1)c1ccco1)Cc1ccc(F)cc1 (stereo unspecified) | 1.11
CSc1nc(NCc2ccco2)c2ccccc2n1 | 1.3
Oc1ccc2ccccc2c1Cc1c(O)ccc2ccccc12 | 1.35

----------
Molecular target: Prostaglandin E2 receptor EP2 subtype (Homo sapiens) (UniProt P43116)
Experiment: EP2 receptor modulators, dose response, cell-based, human EP2, PGE2 EC50 shift (AID 1421)
Settings: EP2-expressing cells, PGE2 EC50 shift by compound; measured here: PGE2 EC50 at 6.7 uM compound

COMPOUND | TARGET ENTITY | PGE2 EC50 with compound (nM)
CCOC(=O)C1CCN(c2c(-c3ccccc3)c3cc(Cl)ccc3[nH]c2=O)CC1 | Prostaglandin E2 receptor EP2 subtype (Homo sapiens) (UniProt P43116) | 1.03
CCn1c2ccccc2c2nc3ccccc3nc21 | Prostaglandin E2 receptor EP2 subtype (Homo sapiens) (UniProt P43116) | 1.55
CCOC(=O)c1c(C2COc3ccccc3O2)csc1N (configuration not stated) | Prostaglandin E2 receptor EP2 subtype (Homo sapiens) (UniProt P43116) | 1.39
O=c1c2c(nc3n1CCCCC3)-c1ccccc1CC21CCCCC1 | Prostaglandin E2 receptor EP2 subtype (Homo sapiens) (UniProt P43116) | 1.25
O=c1c2c(n3cnnc3n1C1CCCCC1)-c1ccccc1CC21CCCCC1 | Prostaglandin E2 receptor EP2 subtype (Homo sapiens) (UniProt P43116) | 0.33
COc1ccc(-c2cc(C(F)(F)F)nc(NC3CCCC3)n2)cc1OC | Prostaglandin E2 receptor EP2 subtype (Homo sapiens) (UniProt P43116) | 0.7
Cc1cc2ccc(C)c(C)c2nc1SCC#N | Prostaglandin E2 receptor EP2 subtype (Homo sapiens) (UniProt P43116) | 1.18
C=CCc1cccc(/C=N/c2nc3ccccc3n2CC)c1O | Prostaglandin E2 receptor EP2 subtype (Homo sapiens) (UniProt P43116) | 0.63
CCOc1cccc(CNc2ccc(O)cc2)c1OCc1ccccc1Cl | Prostaglandin E2 receptor EP2 subtype (Homo sapiens) (UniProt P43116) | 0.62
Cc1noc2ncnc(Sc3c(Cl)cccc3Cl)c12 | Prostaglandin E2 receptor EP2 subtype (Homo sapiens) (UniProt P43116) | 0.75
S=c1[nH]nc(C2CCCCC2)n1Cc1ccccc1 | Prostaglandin E2 receptor EP2 subtype (Homo sapiens) (UniProt P43116) | 1.02
COc1ccc(CSC2=C(C#N)C(=O)NC3(CCCCC3)S2)cc1 | Prostaglandin E2 receptor EP2 subtype (Homo sapiens) (UniProt P43116) | 1.3

----------
Biological target: Prostaglandin E2 receptor EP2 subtype (Homo sapiens) (UniProt P43116)
Test: EP2 receptor modulators, dose response, cell-based, human EP2, PGE2 EC50 shift (AID 1421)
Details: EP2-expressing cells, PGE2 EC50 shift by compound; measured here: PGE2 EC50 at 6.7 uM compound
Please respond with TRUE when measured PGE2 EC50 with compound is strictly beneath 1 nM, and with FALSE in all other cases.

MOLECULE | TARGET ENTITY | ASSIGNED LABEL
CCOC(=O)C1=C(C)OC(N)=C(C#N)C1c1cc(C)sc1C (stereo unspecified) | Prostaglandin E2 receptor EP2 subtype (Homo sapiens) (UniProt P43116) | FALSE
Cc1cc(Br)c2nc3c(c(C(=O)O)c2c1)CCCCC3 | Prostaglandin E2 receptor EP2 subtype (Homo sapiens) (UniProt P43116) | FALSE
C/C(=N\O)C(=O)OC1CC(C)CCC1C(C)C (stereo unspecified) | Prostaglandin E2 receptor EP2 subtype (Homo sapiens) (UniProt P43116) | TRUE
CC(C)Sc1cc(N2CCOCC2)nc(-c2ccccc2)n1 | Prostaglandin E2 receptor EP2 subtype (Homo sapiens) (UniProt P43116) | FALSE
C=CCSc1nccc(-c2cc(Cl)sc2Cl)n1 | Prostaglandin E2 receptor EP2 subtype (Homo sapiens) (UniProt P43116) | FALSE
Cc1cc(SCC(=O)c2ccccc2)nc2ccccc12 | Prostaglandin E2 receptor EP2 subtype (Homo sapiens) (UniProt P43116) | FALSE
CCOc1ccc(C(C)=O)cc1CC(C(N)=O)C(N)=O | Prostaglandin E2 receptor EP2 subtype (Homo sapiens) (UniProt P43116) | FALSE
CC1CCN(c2nc3c(c(=O)[nH]c(=O)n3C)n2CC(C)CSc2nnnn2-c2ccccc2)CC1 (stereo unspecified) | Prostaglandin E2 receptor EP2 subtype (Homo sapiens) (UniProt P43116) | FALSE
O=C(CC(Sc1ccccc1)c1cccs1)c1ccco1 (stereo unspecified) | Prostaglandin E2 receptor EP2 subtype (Homo sapiens) (UniProt P43116) | TRUE
CCCOC(=O)c1ccc(NC(=O)c2cn(CC)c3nc(C)ccc3c2=O)cc1 | Prostaglandin E2 receptor EP2 subtype (Homo sapiens) (UniProt P43116) | FALSE
COC1(C)CC2C(CC1OC(=O)c1cc([N+](=O)[O-])cc([N+](=O)[O-])c1)C2(C)C (stereo unspecified) | Prostaglandin E2 receptor EP2 subtype (Homo sapiens) (UniProt P43116) | FALSE
COc1cc(CN2CCC(C(=O)N3CCN(c4ccccc4F)CC3)CC2)cc(OC)c1OC | Prostaglandin E2 receptor EP2 subtype (Homo sapiens) (UniProt P43116) | TRUE
Cc1sc(NC(=O)c2cccs2)c(C(=O)OC(C)C)c1C | Prostaglandin E2 receptor EP2 subtype (Homo sapiens) (UniProt P43116) | FALSE
C/C(=N\NC(=O)NC1CCCCC1)C1CCCCC1 | Prostaglandin E2 receptor EP2 subtype (Homo sapiens) (UniProt P43116) | FALSE
Cc1cccc(-n2c(CCn3nc(C)c([N+](=O)[O-])c3C)n[nH]c2=S)c1 | Prostaglandin E2 receptor EP2 subtype (Homo sapiens) (UniProt P43116) | FALSE
COC(=O)c1ccc(Oc2cc(C)nc(NCc3ccccc3)n2)cc1 | Prostaglandin E2 receptor EP2 subtype (Homo sapiens) (UniProt P43116) | TRUE
Cc1ccc(-c2nc(P(=O)(c3ccccc3)c3ccccc3)c(N3CCOCC3)o2)cc1 | Prostaglandin E2 receptor EP2 subtype (Homo sapiens) (UniProt P43116) | FALSE
CCc1nc(N2CCC(C)CC2)c2oc3ccccc3c2n1 | Prostaglandin E2 receptor EP2 subtype (Homo sapiens) (UniProt P43116) | FALSE
C=CCCC1(C)C(=O)N(c2ccccc2)c2ccccc21 (stereo unspecified) | Prostaglandin E2 receptor EP2 subtype (Homo sapiens) (UniProt P43116) | FALSE
CCc1c(-c2n[nH]c(=S)n2Cc2ccccc2)csc1C | Prostaglandin E2 receptor EP2 subtype (Homo sapiens) (UniProt P43116) | FALSE
c1cncc(-c2nc(N3CCCCCC3)c3ccccc3n2)c1 | Prostaglandin E2 receptor EP2 subtype (Homo sapiens) (UniProt P43116) | TRUE
CNC(=O)NC(=O)CSc1nc(-c2cccs2)c(C#N)c(=O)[nH]1 | Prostaglandin E2 receptor EP2 subtype (Homo sapiens) (UniProt P43116) | FALSE
O=C(c1cccs1)c1cn(Cc2ccccc2Cl)c2ccccc12 | Prostaglandin E2 receptor EP2 subtype (Homo sapiens) (UniProt P43116) | FALSE
Clc1ccc(Cn2c(/C=C/c3ccco3)nc3ccccc32)cc1 | Prostaglandin E2 receptor EP2 subtype (Homo sapiens) (UniProt P43116) | FALSE
CC1CCCC(C)N1C(=O)c1ccccc1Nc1ccc(SC(F)F)cc1 (stereo unspecified) | Prostaglandin E2 receptor EP2 subtype (Homo sapiens) (UniProt P43116) | FALSE
CCOC(=O)c1ccccc1NC(=O)COc1ccccc1 | Prostaglandin E2 receptor EP2 subtype (Homo sapiens) (UniProt P43116) | FALSE
CN(/N=C/C=C/c1ccccc1)C1=NS(=O)(=O)c2ccccc21 | Prostaglandin E2 receptor EP2 subtype (Homo sapiens) (UniProt P43116) | TRUE
Cc1cc(-c2ccccc2)nc2cc(C(=O)N(Cc3ccccc3)Cc3ccccc3)nn12 | Prostaglandin E2 receptor EP2 subtype (Homo sapiens) (UniProt P43116) | FALSE
FC(F)(F)c1cccc(/C=N/NC(=S)NC2CCCCC2)c1 | Prostaglandin E2 receptor EP2 subtype (Homo sapiens) (UniProt P43116) | TRUE
O=C(O)c1oc(C(=O)O)c(C(=O)O)c1C(=O)O | Prostaglandin E2 receptor EP2 subtype (Homo sapiens) (UniProt P43116) | FALSE
